Listed below: EC50 values for each entry.
molecular target: dopamine D1 receptor (Rattus norvegicus); assay: Effective concentration that gives maximal stimulation of cyclic AMP production over the concentration range tested.
A number alone suffices; assume nM.

> print(dat)
                                   compound                               studytarget  testresult
1  CN1Cc2c(N)cccc2C(c2ccc(O)c(O)c2)C1 (configuration not stated)  dopamine D1 receptor (Rattus norvegicus)        2880

Continue with the next compound.
Item CN1Cc2c(N)cccc2[C@H](c2ccc(O)c(O)c2)C1 was tested on dopamine D1 receptor (Rattus norvegicus); the reported EC50 is 1870
